Molecular target: Histone acetyltransferase KAT2B (Homo sapiens)
Sequence (Q92831 whole entry): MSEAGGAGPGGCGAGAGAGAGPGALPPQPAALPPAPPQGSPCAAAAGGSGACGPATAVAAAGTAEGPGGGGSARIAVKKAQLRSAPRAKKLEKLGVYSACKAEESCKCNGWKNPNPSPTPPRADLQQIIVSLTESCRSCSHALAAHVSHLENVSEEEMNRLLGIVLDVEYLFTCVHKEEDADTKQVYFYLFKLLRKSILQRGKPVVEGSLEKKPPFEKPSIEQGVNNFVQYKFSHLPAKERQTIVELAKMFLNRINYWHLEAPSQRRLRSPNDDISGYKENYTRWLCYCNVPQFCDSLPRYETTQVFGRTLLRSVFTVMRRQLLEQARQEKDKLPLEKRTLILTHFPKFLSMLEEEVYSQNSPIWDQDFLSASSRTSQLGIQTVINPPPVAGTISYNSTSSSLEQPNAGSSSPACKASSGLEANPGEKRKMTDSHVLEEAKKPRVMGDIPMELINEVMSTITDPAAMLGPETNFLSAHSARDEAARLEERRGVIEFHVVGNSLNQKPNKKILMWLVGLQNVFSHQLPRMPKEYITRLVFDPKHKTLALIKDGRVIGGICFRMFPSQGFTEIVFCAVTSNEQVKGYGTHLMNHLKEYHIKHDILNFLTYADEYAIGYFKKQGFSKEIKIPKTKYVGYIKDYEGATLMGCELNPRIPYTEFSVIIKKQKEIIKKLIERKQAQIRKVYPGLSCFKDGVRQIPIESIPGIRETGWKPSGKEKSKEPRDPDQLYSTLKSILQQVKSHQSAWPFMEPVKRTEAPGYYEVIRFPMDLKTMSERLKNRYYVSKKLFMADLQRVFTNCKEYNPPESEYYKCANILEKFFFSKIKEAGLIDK
Assay: Inhibition of human recombinant histone acetyltransferase PCAF by ELISA
Exercise: state measured pIC50 for each of the compounds provided.
The read-out pIC50 is expressed as -log10 of concentration in moles per litre.

Query block: Name the reported pIC50 value associated with the compound CCCCCOc1ccc(/C=C\c2cccc(O)c2C(=O)O)cc1
Result block: 3.18

Query block: Name the reported pIC50 value associated with the compound C=CC/C=C\C/C=C\CCCCCCCc1cccc(O)c1C(=O)O
Result block: 3.00
